biological target: Relaxin-3 receptor 2 (Homo sapiens); assay: Displacement of Eu-INSL5 from human RXFP4 receptor expressed in CHOK1 cells by time-resolved fluorescent whole cell binding assay; type: cell-based
Where a SMILES comes first, the peptide text is derived from it. Bridges are numbered along the chain shown (N, C = ends). [ ]: non-standard residue; d: D form. S5 = C=CCCC[C@](C)(N)C(=O)O; hCys = N[C@@H](CCS)C(=O)O
ASSAY_METRIC: Ki

Solved entries:
{"COMPOUND": "CC[C@H](C)[C@@H]1NC(=O)[C@H](Cc2ccccc2)NC(=O)[C@@H](NC(=O)[C@H](CCCNC(=N)N)NC(=O)CNC(=O)[C@H](CO)NC(C)=O)CCC(=O)NCCCC[C@@H](C(=O)N[C@H](C(=O)N[C@H](C(=O)N[C@@H](Cc2ccccc2)C(=O)N[C@H](C(=O)N[C@@H](CO)C(=O)NCC(=O)NCC(=O)N[C@@H](CO)C(=O)N[C@@H](CCCNC(=N)N)C(=O)N[C@@H](Cc2c[nH]c3ccccc23)C(=O)O)[C@@H](C)O)[C@@H](C)CC)C(C)C)NC(=O)[C@H](CCCNC(=N)N)NC1=O (Ac-SGREFIRKVIFTSGGSRW-OH; lactam 4-8)", "Ki": "> 10 µM"}
{"COMPOUND": "CC[C@H](C)[C@@H]1NC(=O)[C@H](Cc2ccccc2)NC(=O)[C@@](C)(NC(=O)[C@H](CCCNC(=N)N)NC(=O)CNC(=O)[C@@H](N)CO)CCC/C=C/CCC[C@@](C)(C(=O)N[C@H](C(=O)N[C@H](C(=O)N[C@@H](Cc2ccccc2)C(=O)N[C@H](C(=O)N[C@@H](CO)C(=O)NCC(=O)NCC(=O)N[C@@H](CO)C(=O)N[C@@H](CCCNC(=N)N)C(=O)N[C@@H](Cc2c[nH]c3ccccc23)C(=O)O)[C@@H](C)O)[C@@H](C)CC)C(C)C)NC(=O)[C@H](CCCNC(=N)N)NC1=O (H-SGR[S5]FIR[S5]VIFTSGGSRW-OH; staple (E) 4-8)", "Ki": "0.407 µM"}

Could you tell me which Ki is on file for CC[C@H](C)[C@@H]1NC(=O)[C@H](Cc2ccccc2)NC(=O)[C@@H](NC(=O)[C@H](CCCNC(=N)N)NC(=O)CNC(=O)[C@H](CO)NC(C)=O)CCSSCC[C@@H](C(=O)N[C@H](C(=O)N[C@H](C(=O)N[C@@H](Cc2ccccc2)C(=O)N[C@H](C(=O)N[C@@H](CO)C(=O)NCC(=O)NCC(=O)N[C@@H](CO)C(=O)N[C@@H](CCCNC(=N)N)C(=O)N[C@@H](Cc2c[nH]c3ccccc23)C(=O)O)[C@@H](C)O)[C@@H](C)CC)C(C)C)NC(=O)[C@H](CCCNC(=N)N)NC1=O (Ac-SGR[hCys]FIR[hCys]VIFTSGGSRW-OH; disulfide 4-8) ?
> 10 µM

* * *

molecular target: Relaxin-3 receptor 2 (Homo sapiens, UniProt Q8TDU9); test: Displacement of Eu-INSL5 from human RXFP4 receptor expressed in CHOK1 cells by time-resolved fluorescent whole cell binding assay
Sequence (Q8TDU9 whole entry): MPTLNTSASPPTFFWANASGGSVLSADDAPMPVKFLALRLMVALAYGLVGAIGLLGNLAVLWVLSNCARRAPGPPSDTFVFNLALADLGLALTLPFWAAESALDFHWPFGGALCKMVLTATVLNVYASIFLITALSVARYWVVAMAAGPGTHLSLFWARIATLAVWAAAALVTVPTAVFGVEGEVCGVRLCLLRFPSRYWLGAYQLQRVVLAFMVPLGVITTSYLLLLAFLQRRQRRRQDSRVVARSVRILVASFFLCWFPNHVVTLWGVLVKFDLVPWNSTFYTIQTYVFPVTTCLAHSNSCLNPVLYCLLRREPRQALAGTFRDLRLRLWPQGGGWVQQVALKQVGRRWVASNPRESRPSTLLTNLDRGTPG
Where a SMILES comes first, the peptide text is derived from it.
ASSAY_METRIC: Ki

What Ki value was documented for this compound, CC[C@H](C)[C@H](NC(=O)[C@H](Cc1ccccc1)NC(=O)[C@H](CCC(=O)O)NC(=O)[C@H](CCCNC(=N)N)NC(=O)CNC(=O)[C@H](CO)NC(C)=O)C(=O)N[C@@H](CCCNC(=N)N)C(=O)N[C@@H](CCCCN)C(=O)N[C@H](C(=O)N[C@H](C(=O)N[C@@H](Cc1ccccc1)C(=O)N[C@H](C(=O)N[C@@H](CO)C(=O)NCC(=O)NCC(=O)N[C@@H](CO)C(=O)N[C@@H](CCCNC(=N)N)C(=O)N[C@@H](Cc1c[nH]c2ccccc12)C(=O)O)[C@@H](C)O)[C@@H](C)CC)C(C)C (Ac-SGREFIRKVIFTSGGSRW-OH) ?
> 10 µM

* * *

target: Relaxin-3 receptor 2 (Homo sapiens); test: Displacement of Eu-INSL5 from human RXFP4 receptor expressed in CHOK1 cells by time-resolved fluorescent whole cell binding assay; assay type: cell-based
Where a SMILES comes first, the peptide text is derived from it. Bridges are numbered along the chain shown (N, C = ends). [ ]: non-standard residue; d: D form. S5 = C=CCCC[C@](C)(N)C(=O)O
ASSAY_METRIC: Ki (nM)
// return numeric value only (unit: nM, not printed)

Which Ki value belongs to CC[C@H](C)[C@@H]1NC(=O)[C@H](Cc2ccccc2)NC(=O)[C@@](C)(NC(=O)[C@H](CCCNC(=N)N)NC(=O)CNC(=O)[C@H](CO)NC(C)=O)CCC/C=C/CCC[C@@](C)(C(=O)N[C@H](C(=O)N[C@H](C(=O)N[C@@H](Cc2ccccc2)C(=O)N[C@H](C(=O)N[C@@H](CO)C(=O)NCC(=O)NCC(=O)N[C@@H](CO)C(=O)N[C@@H](CCCNC(=N)N)C(=O)N[C@@H](Cc2c[nH]c3ccccc23)C(=O)O)[C@@H](C)O)[C@@H](C)CC)C(C)C)NC(=O)[C@H](CCCNC(=N)N)NC1=O (Ac-SGR[S5]FIR[S5]VIFTSGGSRW-OH; staple (E) 4-8) ?
316

* * *

biological target: Relaxin-3 receptor 2 (Homo sapiens); test: Agonist activity at human RXFP4 receptor expressed in CHOK1 cells cotransfected with beta-galactosidase assessed as inhibition of forskolin-stimulated cAMP by beta-galactosidase reporter gene assay
Where a SMILES comes first, the peptide text is derived from it. Bridges are numbered along the chain shown (N, C = ends). [ ]: non-standard residue; d: D form. S5 = C=CCCC[C@](C)(N)C(=O)O
ASSAY_METRIC: EC50 (nM)
A number alone suffices; assume nM.

# annotated cases, reported EC50 shown
{"MOLECULE": "CC[C@H](C)[C@@H]1NC(=O)[C@H](Cc2ccccc2)NC(=O)[C@@](C)(NC(=O)[C@H](CCCNC(=N)N)NC(=O)CNC(=O)[C@@H](N)CO)CCC/C=C/CCC[C@@](C)(C(=O)N[C@H](C(=O)N[C@H](C(=O)N[C@@H](Cc2ccccc2)C(=O)N[C@H](C(=O)N[C@@H](CO)C(=O)NCC(=O)NCC(=O)N[C@@H](CO)C(=O)N[C@@H](CCCNC(=N)N)C(=O)N[C@@H](Cc2c[nH]c3ccccc23)C(=O)O)[C@@H](C)O)[C@@H](C)CC)C(C)C)NC(=O)[C@H](CCCNC(=N)N)NC1=O (H-SGR[S5]FIR[S5]VIFTSGGSRW-OH; staple (E) 4-8)", "EC50, nM": 191}
{"MOLECULE": "CC[C@H](C)[C@@H]1NC(=O)[C@H](Cc2ccccc2)NC(=O)[C@@H](NC(=O)[C@H](CCCNC(=N)N)NC(=O)CNC(=O)[C@H](CO)NC(C)=O)CCC(=O)NCCCC[C@@H](C(=O)N[C@H](C(=O)N[C@H](C(=O)N[C@@H](Cc2ccccc2)C(=O)N[C@H](C(=O)N[C@@H](CO)C(=O)NCC(=O)NCC(=O)N[C@@H](CO)C(=O)N[C@@H](CCCNC(=N)N)C(=O)N[C@@H](Cc2c[nH]c3ccccc23)C(=O)O)[C@@H](C)O)[C@@H](C)CC)C(C)C)NC(=O)[C@H](CCCNC(=N)N)NC1=O (Ac-SGREFIRKVIFTSGGSRW-OH; lactam 4-8)", "EC50, nM": 537}
{"MOLECULE": "CC[C@H](C)[C@H](NC(=O)[C@H](Cc1ccccc1)NC(=O)[C@H](CCC(=O)O)NC(=O)[C@H](CCCNC(=N)N)NC(=O)CNC(=O)[C@H](CO)NC(C)=O)C(=O)N[C@@H](CCCNC(=N)N)C(=O)N[C@@H](C)C(=O)N[C@H](C(=O)N[C@H](C(=O)N[C@@H](Cc1ccccc1)C(=O)N[C@H](C(=O)N[C@@H](CO)C(=O)NCC(=O)NCC(=O)N[C@@H](CO)C(=O)N[C@@H](CCCNC(=N)N)C(=O)N[C@@H](Cc1c[nH]c2ccccc12)C(=O)O)[C@@H](C)O)[C@@H](C)CC)C(C)C (Ac-SGREFIRAVIFTSGGSRW-OH)", "EC50, nM": 2690}
{"MOLECULE": "CC[C@H](C)[C@@H]1NC(=O)[C@H](Cc2ccccc2)NC(=O)[C@@](C)(NC(=O)[C@H](CCCNC(=N)N)NC(=O)CNC(=O)[C@H](CO)NC(C)=O)CCC/C=C/CCC[C@@](C)(C(=O)N[C@H](C(=O)N[C@H](C(=O)N[C@@H](Cc2ccccc2)C(=O)N[C@H](C(=O)N[C@@H](CO)C(=O)NCC(=O)NCC(=O)N[C@@H](CO)C(=O)N[C@@H](CCCNC(=N)N)C(=O)N[C@@H](Cc2c[nH]c3ccccc23)C(=O)O)[C@@H](C)O)[C@@H](C)CC)C(C)C)NC(=O)[C@H](CCCNC(=N)N)NC1=O (Ac-SGR[S5]FIR[S5]VIFTSGGSRW-OH; staple (E) 4-8)", "EC50, nM": 112}

With those in mind, consider the next molecule.
What measured EC50 goes with CC[C@H](C)[C@H](NC(=O)[C@H](Cc1ccccc1)NC(=O)[C@H](CCC(=O)O)NC(=O)[C@H](CCCNC(=N)N)NC(=O)CNC(=O)[C@H](CO)NC(C)=O)C(=O)N[C@@H](CCCNC(=N)N)C(=O)N[C@@H](CCCCN)C(=O)N[C@H](C(=O)N[C@H](C(=O)N[C@@H](Cc1ccccc1)C(=O)N[C@H](C(=O)N[C@@H](CO)C(=O)NCC(=O)NCC(=O)N[C@@H](CO)C(=O)N[C@@H](CCCNC(=N)N)C(=O)N[C@@H](Cc1c[nH]c2ccccc12)C(=O)O)[C@@H](C)O)[C@@H](C)CC)C(C)C (Ac-SGREFIRKVIFTSGGSRW-OH) ?
5890
